target_or_test_system: T1, human IL-6 (human, UniProt P05231 30-212)
T1 construct: Soluble IL-6 of the mAb SPR (analyte was 3×FLAG-IL-6 or IL-6 CYT-213); also called recombinant human IL-6 (Prospec-Tany CYT-213, CYT-274)
method_description: SPR (SensiQ Pioneer), mAb captured on protein G, IL-6 as analyte (3×FLAG-IL-6 or IL-6 CYT-213, 1-100 nM), 25 C, 1:1 model
observation_type: koff (s⁻¹)
Answers are plain numbers, in s⁻¹.

Consider the worked cases shown below.
9C8 chimeric mAb (antibody, V domains shown, Rabbit/human chimeric IgG (human IgG1, kappa); HEK293; also called 9C8 clone) VH: QSVEESGGRLVTPGTPLTLTCTVSGIDLSSYDMSWVRQAPGKGLEWIGYIYTDSSTYYANWAKGRFTISKTSTTVDLKMTSLTTEDTATYFCAKGSTDYAFDTRLDLWGPGTLVTVS VL: AYDMTQTPASVEVAMGGTVTIKCQASQSISNELSWYQQKPGQPPKLLIYRTSTLASGVSSRFKGSGSGTEYTLTISGVECADAATYYCQQGYNSNDVDNVFGGGTKVVVVR	3.17e-05
18D4 chimeric mAb (antibody, V domains shown, Rabbit/human chimeric IgG (human IgG1, kappa); HEK293; also called 18D4 clone) VH: QSVEESGGRLVTPGTPLTLTCTVSGFSLSSYAMTWVRQAPGKGLEWIGTSYVYSGDTWYASWVKGRFTISKTSTTVDLKITSPTTEDTATYFCARVGDYDDYGAHDVFDSWGPGTLVTVSS VL: YDMTQTPASVEVAVGGTVTIKCQASESISSWLSWYQQKPGQRPKLLLYRASTLASGVSSRFSGSGYGTEFTLTISGVQCEDAATYYCQQGYTGGNVDNAFGGGTKVVVVR	8.49e-05
13A8 chimeric mAb (antibody, V domains shown, HEK293; also called 13A8 clone) VH: QSVEESGGRLVTPGTPLTLTCTVSGIDLSSYDMSWVRQAPGKGLEWIGYIYTDSSTWYANWAKGRFTISKTSSTTVDLKMTSLTTEDTATYFCAKGSTDYAFDTRLDLWGPGTLVTVSS VL: NIVMTQTPSPVSGAVGGTVTINCQASQSISNELSWYQQKPGQPPRLLIYRASTLTSGVSSRFKGSGAGTQFTLTISGVECADAATYYCQQGYNSNDVDNVFGGGTKVVVVR	0.000138

# input for lookup
So what does the record say about koff for 9H4 chimeric mAb (antibody, V domains shown, Rabbit/human chimeric IgG (human IgG1, kappa); HEK293; also called 9H4 clone) VH: QSLEESGGRLVTPGTPLTLTCTASGFSLSSYDMSWVRQAPGKGLEWIGYIYTDTSTYYANWAKGRFSISKTSTTVDLKMTSLTAEDTATYFCAKGSTDYAFDTRLDLWGPGTLVTVSS VL: YDMTQTPASVEVAMGGTVTIKCQASQSISNELSWYQQKPGQPPKLLIYRTSTLASGVSSRFKGSGSGTEYTLTISGVECADAATYYCQQGYNSNDVDNVFGGGTEVVVVR ?
4.75e-05

Origin of measurements: patent US20160194391A1
